Cited source for all entries: paper PMC5143172

Experiment: Brain penetration, monkey
Type: in vivo
Conditions: monkey, brain/plasma, po, 10 mg/kg
measurementName: Kp at 2 h

Q: Query (molecule): NC(=O)/C(=C/n1cnc(-c2cc(C(F)(F)F)cc(C(F)(F)F)c2)n1)c1cncnc1 ; field requested: Kp at 2 h
A: < 0.02
